// data source = the supplement of paper PMC9732359

procedure text: protein stability index of a GFP-peptide fusion (yeast GPS) (PSI 1-4); higher = more stable; sorted into four equal gates, so the index is relative within each strain
conditions used: doa10∆
readout kind: protein stability index

1) AQGLLHLGKGTMTMDVF [RPN1]	2.47
2) EPIEESSQNNSELAPIE [IRR1]	2.89
3) TTPKKIKHKHKKVKLAV [RPS31]	2.19
4) LQVLKRERDGIKEDIEK [SMC1]	3.06
5) EDDNTPAGHAGNPTNIS [YDL088C/ASM4]	2.87
6) KDVAKPTGPKTAIDKNG [FAS2]	3.31
7) TNAAFPFHDPEARLFNI [ECM29]	3.04
8) IINPHAIPSRMTVAHLI [RPB2]	1.79
9) DDPTQLVSRGGCGNTQP [RPO21]	3.18
10) FLFAPELGAINLHALSM [SWI1]	1.84
11) SGSTEKAFKICEAAVEI [SIR3]	2.97
12) NVLDYFAESPFFDKTSN [MED6]	3.46
13) RATNCRKRKCGHTNQLR [RPL40A]	3.25
14) MKTQRFVSNMGFDIQKS [SIR4]	2.63
15) KGKARLGTLVNQKTSAV [RPL8A]	2.65
16) GQKNEVRILRLITTNSV [SNF2]	2.21
17) KRVKSYMDKAKQYDNRI [LRP1]	2.87
18) TSNNETNNGNDDNETEN [GRR1]	3.03
19) EDDSSNSCFSDGSQQNL [REC8]	3.7
20) GEIEIKPNEEEELGFWD [RPN13]	3.15
21) NYIPGNPLVTPASIVPE [COB]	1.81
22) VDQGQIYRDRSTFTKHL [ITC1]	3.2
23) IYNNIVSNIEGILDEIM [RGR1]	2.72
24) AQPSVQSSFAGTWSAKE [FAS2]	2.74
25) ENGIEVELLDSNDRVNP [ITC1]	3.56
26) SIVGVDLSSAASASGAA [FAS2]	1.77
27) GHLPEVSSKCNDIHLRF [ECM29]	2.69
28) DIDDILKKGEQKTQELN [ISW2]	3.31
29) WAEHLSDEVKRRFYKNW [RPL3]	3.31
30) VISTIENVLFYIGRVNK [COB]	1.92
31) EDLFETISQALLNAADR [PUP3]	2.81

###

Reported protein stability index by item:
procedure text: protein stability index of a GFP-peptide fusion (yeast GPS) (PSI 1-4); higher = more stable; sorted into four equal gates, so the index is relative within each strain
conditions used: doa10∆
readout kind: protein stability index

1. FVKVTKATLELLKLIEP [RPL7A]	3.06
2. QVLSQSADPSLLIDQFS [SWI1]	3.03
3. TGKERSKKRKLNSLTNL [SNM1]	2.41
4. EGSTIRYLAVTLQDIGF [YMR129W/POM152]	2.5
5. LKIQFILSTTLDPTDDE [SIN4]	2.04
6. KQERLKENEESLTPTQS [PRP28]	3.13
7. RPKKVKLEGSENSEPPA [SNF2]	3.13
8. DSLKKLLPQWDDDQIES [ARP9]	3.32
9. ITHNTNITDNLFQELSK [GRR1]	3.27
10. SDDQQEAVELVIGLDSE [YML103C/NUP188]	2.9
11. PWGDYLQLETPAEVGRA [BRR2]	1.25
12. CGHRILLKARTKRLVQF [RPC10]	1.43
13. KRLIAHDWLNALDGDLI [YCG1]	2.18
14. RKLFPNWIKPSDSEIPP [PRP8]	3.42
15. TFSGALGKQSSSLLSRL [FAS2]	3.33
16. RQMKDVNAPLPTPFKVD [RPN2]	3.07
17. EDPKRRADTMDFKTDVD [YJL039C/NUP192]	3.29
18. SEYSSEASNTPIEHQFN [PRE7]	3.16
19. VNNPQEETSHLLTVTPG [RPN10]	2.62
20. DIEQLEYSRDCFCEDHC [RPB3]	3.1
21. ELQKSLSLEEVEGHLFE [FAS1]	3.16
22. LNEMLNTRKNMSISLES [DIS3]	2.66
23. WHIEETGEWFSSYEEFL [ITC1]	2.31
24. AVAHHTDCKFIRVSGAE [RPT6]	3.04
25. QNTVPNVLNQINQIFSP [GAL11]	2.63
26. GAHLLEFQPSGNVTELY [PRE5]	2.54
27. RSAWNNNNDNDANRNAN [GRR1]	2.55
